Biological target: AR protein in VCaP cells (Homo sapiens, UniProt P10275)
Construct: endogenous in cells; host or cells: VCaP cells
Sequence (P10275 whole entry): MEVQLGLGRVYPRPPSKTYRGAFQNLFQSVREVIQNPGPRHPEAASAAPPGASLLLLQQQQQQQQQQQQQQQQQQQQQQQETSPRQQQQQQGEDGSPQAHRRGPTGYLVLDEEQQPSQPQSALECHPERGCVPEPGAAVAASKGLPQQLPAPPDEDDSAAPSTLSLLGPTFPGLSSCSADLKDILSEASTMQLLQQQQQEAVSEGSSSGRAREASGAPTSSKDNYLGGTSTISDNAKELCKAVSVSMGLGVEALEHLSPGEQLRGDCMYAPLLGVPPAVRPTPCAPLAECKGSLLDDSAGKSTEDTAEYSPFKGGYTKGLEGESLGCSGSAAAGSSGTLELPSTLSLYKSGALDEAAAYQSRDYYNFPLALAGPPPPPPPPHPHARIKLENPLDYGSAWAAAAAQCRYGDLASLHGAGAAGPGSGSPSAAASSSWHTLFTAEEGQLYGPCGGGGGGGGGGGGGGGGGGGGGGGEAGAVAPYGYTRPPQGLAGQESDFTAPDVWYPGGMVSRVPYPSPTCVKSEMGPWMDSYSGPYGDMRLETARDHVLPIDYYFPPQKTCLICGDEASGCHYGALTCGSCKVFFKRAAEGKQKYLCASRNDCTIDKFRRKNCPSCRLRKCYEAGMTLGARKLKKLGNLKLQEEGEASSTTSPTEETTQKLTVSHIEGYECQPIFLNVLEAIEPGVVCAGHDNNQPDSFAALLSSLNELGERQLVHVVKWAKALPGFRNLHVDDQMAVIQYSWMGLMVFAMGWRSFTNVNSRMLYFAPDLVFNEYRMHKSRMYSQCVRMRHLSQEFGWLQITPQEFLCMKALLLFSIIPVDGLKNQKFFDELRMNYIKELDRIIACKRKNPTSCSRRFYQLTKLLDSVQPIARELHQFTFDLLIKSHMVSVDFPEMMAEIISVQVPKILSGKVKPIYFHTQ
Test: VCAP AR Degradation Assay (AR ELISA, 24 h)
Assay type: cell-based
Conditions: AR degradation efficiency
Measurement Kind: Y (lowest measured AR level normalized to DMSO control)

Would you please look over these solved cases?
>  <Molecule>
CCc1cc(N2C(=S)N(c3cnc(C#N)c(C(F)(F)F)c3)C(=O)C23CCC3)ccc1OCCC1CCN(CC(=O)Nc2cccc(NC3CCC(=O)NC3=O)c2)C(C)(C)C1 (single isomer, unassigned)

>  <Endpoint Result>
* (0<Y<=25%)

$$$$
>  <Molecule>
CC1(C)C(=O)N(c2ccc(C#N)c(C(F)(F)F)c2)C(=S)N1c1ccc(OCCC2CCN(CC(=O)Nc3cc(Cl)cc(NC4CCC(=O)NC4=O)c3)CC2)c(Cl)c1 (stereo not drawn)

>  <Endpoint Result>
* (0<Y<=25%)

$$$$
>  <Molecule>
CCc1cc(N2C(=S)N(c3ccc(C#N)c(C(F)(F)F)c3)C(=O)C2(C)C)ccc1OC1CCN(CC(=O)Nc2cc(Cl)cc(NC3CCC(=O)NC3=O)c2)CC1 (stereo not drawn)

>  <Endpoint Result>
** (25%<Y<=35%)

$$$$
>  <Molecule>
CCc1cc(N2C(=S)N(c3cnc(C#N)c(C(F)(F)F)c3)C(=O)C2(C)C)ccc1OCC[C@@H]1CCN(CC(=O)Nc2cc(NC3CCC(=O)NC3=O)ccc2F)[C@H](C)C1 (stereo partly drawn)

>  <Endpoint Result>
** (25%<Y<=35%)

$$$$
>  <Molecule>
CCc1cc(N2C(=S)N(c3cnc(C#N)c(C(F)(F)F)c3)C(=O)C2(C)C)ccc1OCCC1CCN([C@@H](C)C(=O)Nc2cccc(N[C@H]3CCC(=O)NC3=O)c2)CC1

>  <Endpoint Result>
* (0<Y<=25%)

$$$$

Need Y (lowest measured AR level normalized to DMSO control) of CC1(C)C(=O)N(c2ccc(C#N)c(C(F)(F)F)c2)C(=S)N1c1ccc(OCC2CCN(CC(=O)Nc3cc(Cl)cc(NC4CCC(=O)NC4=O)c3)CC2)c(Cl)c1 (stereo not drawn) , thanks.
*** (35%<Y<50%)

Need Y (lowest measured AR level normalized to DMSO control) of CCc1cc(N2C(=S)N(c3ccc(C#N)c(C(F)(F)F)c3)C(=O)C23CCC3)ccc1OCCC1CCN(CC(=O)Nc2cccc(NC3CCC(=O)NC3=O)c2)CC1 (stereo not drawn) , thanks.
* (0<Y<=25%)

Need Y (lowest measured AR level normalized to DMSO control) of CCc1cc(N2C(=S)N(c3cnc(C#N)c(C(F)(F)F)c3)C(=O)C2(C)C)ccc1OCC[C@@H]1CCN(CC(=O)Nc2cccc(NC3CCC(=O)NC3=O)c2)[C@H](C)C1 (stereo partly drawn) , thanks.
* (0<Y<=25%)

Need Y (lowest measured AR level normalized to DMSO control) of CCc1cc(N2C(=S)N(c3cnc(C#N)c(C(F)(F)F)c3)C(=O)C2(C)C)ccc1OCC[C@@H]1C[C@H]2CC[C@@H](C1)N2CC(=O)Nc1cc(Cl)cc(NC2CCC(=O)NC2=O)c1 (stereo partly drawn) , thanks.
* (0<Y<=25%)

Need Y (lowest measured AR level normalized to DMSO control) of CCc1cc(N2C(=S)N(c3ccc(C#N)c(C(F)(F)F)c3)C(=O)C2(C)C)cnc1O[C@H]1C[C@@H](C)N(CC(=O)Nc2cccc(NC3CCC(=O)NC3=O)c2)[C@@H](C)C1 (stereo partly drawn) , thanks.
** (25%<Y<=35%)

Need Y (lowest measured AR level normalized to DMSO control) of CCc1cc(N2C(=S)N(c3cnc(C#N)c(C(F)(F)F)c3)C(=O)C2(C)C)ccc1OC1CCN(CC(=O)Nc2cc(NC3CCC(=O)NC3=O)ccc2F)CC1 (stereo not drawn) , thanks.
*** (35%<Y<50%)

Need Y (lowest measured AR level normalized to DMSO control) of CCc1cc(N2C(=S)N(c3ccc(C#N)c(C(F)(F)F)c3)C(=O)C2(C)C)ccc1OCCC1CCN(CC(=O)Nc2cc(Cl)cc(NC3CCC(=O)NC3=O)c2)CC1 (stereo not drawn) , thanks.
* (0<Y<=25%)

Need Y (lowest measured AR level normalized to DMSO control) of CCc1cc(N2C(=S)N(c3ccc(C#N)c(C(F)(F)F)c3)C(=O)C23CCC3)ccc1OCCC1CCN([C@@H](C)C(=O)Nc2cc(Cl)cc(NC3CCC(=O)NC3=O)c2)CC1 (stereo partly drawn) , thanks.
** (25%<Y<=35%)

Need Y (lowest measured AR level normalized to DMSO control) of CCc1cc(N2C(=S)N(c3cnc(C#N)c(C(F)(F)F)c3)C(=O)C2(C)C)ccc1OCC1CCN(CC(=O)Nc2cccc(NC3CCC(=O)NC3=O)c2)CC1 (stereo not drawn) , thanks.
** (25%<Y<=35%)

Need Y (lowest measured AR level normalized to DMSO control) of CCc1cc(N2C(=S)N(c3ccc(C#N)c(C(F)(F)F)c3)C(=O)C2(C)C)ccc1OCCC1CCN([C@@H](C)C(=O)Nc2cc(Cl)cc(NC3CCC(=O)NC3=O)c2)CC1 (stereo partly drawn) , thanks.
* (0<Y<=25%)

Need Y (lowest measured AR level normalized to DMSO control) of CCc1cc(N2C(=S)N(c3ccc(C#N)c(C(F)(F)F)c3)C(=O)C2(C)C)ccc1OC1CCN(CC(=O)Nc2cccc(NC3CCC(=O)NC3=O)c2)CC1 (stereo not drawn) , thanks.
** (25%<Y<=35%)

Need Y (lowest measured AR level normalized to DMSO control) of CCc1cc(N2C(=S)N(c3cnc(C#N)c(C(F)(F)F)c3)C(=O)C2(C)C)ccc1OC1CCN(CC(=O)Nc2cc(Cl)cc(NC3CCC(=O)NC3=O)c2)CC1 (stereo not drawn) , thanks.
* (0<Y<=25%)

Need Y (lowest measured AR level normalized to DMSO control) of CC(C)c1cc(N2C(=S)N(c3ccc(C#N)c(C(F)(F)F)c3)C(=O)C2(C)C)cnc1OCC[C@H]1C[C@@H](C)N(CC(=O)Nc2cccc(NC3CCC(=O)NC3=O)c2)[C@@H](C)C1 (stereo partly drawn) , thanks.
** (25%<Y<=35%)

Need Y (lowest measured AR level normalized to DMSO control) of CCc1cc(N2C(=S)N(c3ccc(C#N)c(C(F)(F)F)c3)C(=O)C2(C)C)ccc1OCCC1CCN(CC(=O)Nc2cc(F)cc(NC3CCC(=O)NC3=O)c2)CC1 (stereo not drawn) , thanks.
* (0<Y<=25%)

Need Y (lowest measured AR level normalized to DMSO control) of CCc1cc(N2C(=S)N(c3cnc(C#N)c(C(F)(F)F)c3)C(=O)C2(C)C)ccc1OCCC1CCN([C@H](C)C(=O)Nc2cccc(N[C@H]3CCC(=O)NC3=O)c2)CC1 , thanks.
* (0<Y<=25%)

Need Y (lowest measured AR level normalized to DMSO control) of CCc1cc(N2C(=S)N(c3ccc(C#N)c(C(F)(F)F)c3)C(=O)C2(C)C)ccc1OCC1CCN(CC(=O)Nc2cccc(NC3CCC(=O)NC3=O)c2)CC1 (stereo not drawn) , thanks.
** (25%<Y<=35%)

Reference for the values: patent US11325889B2
